test system: Pf3D7; assay: SYBR green I antiplasmodial growth inhibition assay; assay type: cell-based; conditions: Plasmodium falciparum, 3D7, read-out: IC50 (nM) against Pf strains 3D7
Label key: y means IC50 under 400 nM; n means IC50 of 400 nM or more.

C[C@@H]1CC[C@H]2[C@@H](C)C(=O)O[C@@H]3O[C@@]4(C)CC[C@@H]1[C@]32OO4 [Artemisinin] : y
CC(C)(C)NC(=O)[C@@H]1CN(Cc2cnc3occc3c2)CCN1C[C@@H](O)C[C@@H](Cc1ccccc1)C(=O)N[C@H]1c2ccccc2C[C@H]1O [MMV1782353] : n
NC(N)=Nc1ccc(-c2ccc(-c3ccc(N=C(N)N)c(Cl)c3)o2)cc1Cl [MMV688271] : y
CCN(CC)CCCC(C)Nc1ccnc2cc(Cl)ccc12 (stereo not shown) [Chloroquine] : y

Does the reported IC50 of the following molecule sit strictly below 400 nM? COc1nc2ccc(Br)cc2cc1[C@@H](c1ccccc1)[C@@](O)(CCN(C)C)c1cccc2ccccc12 [Bedaquiline]
n

====

test system: PfCam3.1^R539T (MRA1240); experiment: SYBR green I antiplasmodial growth inhibition assay; format: cell-based; settings: Plasmodium falciparum, read-out: IC50 PfCam3.1^R539T
QUANTITY NAME: IC50

Answer with the recorded IC50 for the compound listed here: CC(C)(C)NC(=O)[C@@H]1CN(Cc2cnc3occc3c2)CCN1C[C@@H](O)C[C@@H](Cc1ccccc1)C(=O)N[C@H]1c2ccccc2C[C@H]1O [MMV1782353]
> 1000 nM

====

Target: PfGAP50 (Plasmodium falciparum)
Sequence (Q8I2X3 24-365 limits assumed): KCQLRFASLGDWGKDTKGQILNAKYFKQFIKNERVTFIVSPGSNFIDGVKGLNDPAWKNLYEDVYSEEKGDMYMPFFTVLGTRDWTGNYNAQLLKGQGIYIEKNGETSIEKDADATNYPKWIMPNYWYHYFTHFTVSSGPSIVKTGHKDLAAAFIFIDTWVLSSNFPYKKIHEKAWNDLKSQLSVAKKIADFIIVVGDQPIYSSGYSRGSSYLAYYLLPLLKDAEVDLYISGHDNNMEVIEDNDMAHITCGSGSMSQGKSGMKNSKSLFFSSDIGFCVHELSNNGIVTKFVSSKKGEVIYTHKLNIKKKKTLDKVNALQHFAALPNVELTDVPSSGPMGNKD
QUANTITY NAME: Kd (µM)
Write the value in µM as a bare number.

Answer with the recorded Kd for the compound listed here: `O=C1[C@H](CC[C@H](O)c2ccc(F)cc2)[C@@H](c2ccc(O)cc2)N1c1ccc(F)cc1`
1.16
